Data provenance: patent US9409952B2

Test: Metabolic stability in human hepatic microsome
Assay type: in vitro ADME
Settings: microsomes, pH 7.4; human hepatic microsome, NADPH(+); read-out: CL NADPH(+)
Starred links: 1 amine or outer side, 2 acyl side, 3 side chain; linkers in the order of their positions; H or OH if unused. Positions of bridges follow the written chain, without caps; N, C: chain ends. Non-standard residues stand in square brackets, D forms with d. Residues, ends and D or L forms follow the SMILES beside them. *: point of attachment. NMeF = CN[C@@H](Cc1ccccc1)C(=O)O; NMeI = CC[C@H](C)[C@H](NC)C(=O)O; NMeβAla = CN(CCC(=O)[*:2])[*:1]; NMeL = CN[C@@H](CC(C)C)C(=O)O; NMeA = CN[C@@H](C)C(=O)O; Piperidide = C1CCN(*)CC1; β3hA = C[C@H](N)CC(=O)O; Sar = CNCC(=O)O; tBu = CC(C)(C)*
microsomal CLint at 1 uM by entry:
State just the number; it will be interpreted in µL/min/mg.

Study these solved cases before continuing.
{"COMPOUND": "CC[C@H](C)[C@H]1C(=O)N[C@@H](COC(C)(C)C)C(=O)N[C@@H](C)CC(=O)N(C)[C@@H](C)C(=O)N(C)[C@@H](CC(C)C)C(=O)N(C)CC(=O)N(C)[C@@H](CC(C)C)C(=O)N[C@@H]([C@@H](C)O)C(=O)N(C)[C@@H](C)C(=O)N(C)[C@@H](CC(C)C)C(=O)N1C [DP-804] (cyclo([NMeA][NMeL][NMeI]S(tBu)[β3hA][NMeA][NMeL][Sar][NMeL]T))", "QUANTITY UNIT": "µL/min/mg", "RECORDED MEASUREMENT": 40}
{"COMPOUND": "CC(C)C[C@H]1C(=O)N[C@@H](COC(C)(C)C)C(=O)N[C@H](C(=O)N2CCCCC2)CC(=O)N(C)CC(=O)N[C@@H]([C@@H](C)O)C(=O)N(C)[C@@H](C)C(=O)N(C)[C@@H](Cc2ccccc2)C(=O)N(C)[C@@H](Cc2ccccc2)C(=O)N1C [DP-709] ([Sar]T[NMeA][NMeF][NMeF][NMeL]S(tBu)D-Piperidide; lactam N-8)", "QUANTITY UNIT": "µL/min/mg", "RECORDED MEASUREMENT": 90}
{"COMPOUND": "CC(C)C[C@H]1C(=O)N[C@H](C(=O)N(C)[C@@H](Cc2ccccc2)C(=O)N(C)[C@@H](Cc2ccccc2)C(=O)N[C@@H](C)C(=O)N2CCCCC2)CC(=O)N(C)[C@@H](C)C(=O)N(C)[C@@H](Cc2ccccc2)C(=O)N[C@@H]([C@@H](C)O)C(=O)N(C)[C@@H](C)C(=O)N(C)[C@@H](CC(C)C)C(=O)N(C)[C@@H](CC(C)C)C(=O)N[C@@H](C(C)C)C(=O)N1C [DP-211] ([NMeA][NMeF]T[NMeA][NMeL][NMeL]V[NMeL]D[NMeF][NMeF]A-Piperidide; lactam N-9)", "QUANTITY UNIT": "µL/min/mg", "RECORDED MEASUREMENT": 178}
{"COMPOUND": "CC[C@H](C)[C@@H]1NC(=O)[C@H](Cc2ccccc2)NC(=O)[C@H]([C@@H](C)O)NC(=O)CCN(C)C(=O)C[C@@H](C(=O)N2CCCCC2)NC(=O)[C@H](Cc2ccccc2)NC(=O)[C@H](Cc2ccccc2)NC(=O)CNC(=O)[C@H](CC(C)C)N(C)C(=O)[C@H](CC(C)C)NC1=O [DP-423] ([NMeβAla]TFIL[NMeL]GFFD-Piperidide; lactam N-10)", "QUANTITY UNIT": "µL/min/mg", "RECORDED MEASUREMENT": 110}

Query compound follows.
**Q:** Data request, read-out microsomal CLint at 1 uM, for CC[C@H](C)[C@H](NC(=O)[C@@H](NC(=O)[C@H](CC(C)C)N(C)C(=O)[C@@H](NC(=O)[C@@H]1CC(=O)N(C)[C@@H](C)C(=O)N[C@@H](CC(C)C)C(=O)N(C)[C@@H](Cc2ccccc2)C(=O)N[C@@H](CC(C)C)C(=O)N(C)CC(=O)N(C)[C@@H](CC(C)C)C(=O)N[C@@H]([C@@H](C)CC)C(=O)N(C)[C@@H](CC(C)C)C(=O)N1)[C@@H](C)O)C(C)C)C(=O)N1CCCCC1 [DP-940] ([NMeA]L[NMeF]L[Sar][NMeL]I[NMeL]DT[NMeL]VI-Piperidide; lactam N-9)
**A:** 37
